# Tested on: Human papillomavirus type 1a E7 protein (residues 1-88)
# testSummary: HPV1a E7 small-molecule binders, primary screen, biochemical, small-molecule microarray, residues 1-88, 635 nm (AID 1129)
# conditionContext: small-molecule microarray binding, fluorescence 635 nm; higher = more signal
# cutoff 0.8 applies to composite z-score; >= gives rule met, < gives rule not met

>>> categorylabel("[N-]=[N+]=Nc1ccccc1C[C@]1(C(=O)NCc2ccccc2)N=C(c2ccc(OCCCO)cc2)O[C@H]1c1ccccc1N=[N+]=[N-]")
"rule met"
>>> categorylabel("COc1ccc(NC(=O)O[C@H]2[C@H](OC(=O)c3cc4ccccc4[nH]3)[C@@H](OC(=O)c3cc4ccccc4[nH]3)[C@@H](OC)O[C@@H]2CO)cc1")
"rule not met"
>>> categorylabel("OCCCC1=CC(C2CC2)N(Cc2cccc(OC(F)(F)F)c2)CC1 (stereo not given)")
"rule not met"
>>> categorylabel("COCCOC(=O)N1C(=O)[C@@]2(c3cc(C#CC4(O)CCCCCC4)ccc31)[C@H](C(=O)Nc1nc3ccccc3s1)[C@H]1C(=O)O[C@H](c3ccccc3)[C@H](c3ccccc3)N1[C@@H]2c1ccccc1OCCO")
"rule met"
>>> categorylabel("COC(=O)[C@@]1(Cc2ccccc2)[C@H]2c3cc(C(=O)N(C)C)n(CCc4c[nH]c5ccc(O)cc45)c3C[C@H]2CN1C(=O)c1ccccc1")
"rule met"
>>> categorylabel("COCCOC(=O)N1C(=O)[C@@]2(c3cc(C#CC4=CCCCC4)ccc31)[C@H](C(N)=O)[C@H]1C(=O)O[C@H](c3ccccc3)[C@H](c3ccccc3)N1[C@@H]2c1ccc(O)cc1")
"rule met"
>>> categorylabel("C=C[C@H](C)[C@@H](OC(=O)Nc1ccc(SC)cc1)c1ccc(O)c2ccccc12")
"rule met"
>>> categorylabel("C[N+](C)(C)CCCC[C@@H]1NC(=O)[C@@H]2C[C@H](C(=O)NCCCCCCNC(=O)CS)[C@H](c3ccc(O)cc3)N2C1=O")
"rule not met"
>>> categorylabel("O=C(CS)NCCCCCNC(=O)[C@@H]1C[C@@H]2C(=O)NCC(=O)N2[C@@H]1c1ccc(O)cc1")
"rule not met"
>>> categorylabel("CCOC(=O)C[C@H]1[C@H](OC(=O)c2cc3ccccc3oc2=O)[C@@H](NC(=O)CC(C)C)c2cc(OCCCO)ccc2N1C(=O)c1ccccc1")
"rule met"
>>> categorylabel("NCCCCCNC(=O)[C@H]1C[C@H]2C(=O)N[C@@H](Cc3ccccc3)C(=O)N2[C@H]1c1cccc(OCCO)c1")
"rule not met"
>>> categorylabel("CC(C)=CCCC(C)=CC(O)C1C=CC2C(=O)N(c3ccccc3)C(=O)C2N1Nc1ccc(C(C)C)cc1 (stereo not given)")
"rule met"
>>> categorylabel("O=C1NC(=O)C2C1C=CC(C(O)C1CC=CCC1)N2Nc1ccccn1 (stereo not given)")
"rule not met"
>>> categorylabel("CC(=CC1CCCCC1)[C@@H](NC(=O)c1cccnc1)c1ccc(-c2ccccc2)cc1")
"rule not met"
>>> categorylabel("[N-]=[N+]=Nc1ccccc1C[C@@]1(C(=O)N2CCCCC2)N=C(c2ccc(OCCCO)cc2)O[C@@H]1c1ccccc1")
"rule met"
>>> categorylabel("CN(C)C(=O)[C@]1(Cc2ccccc2)N=C(c2ccc(OCCCO)cc2)O[C@@H]1c1ccccc1N=[N+]=[N-]")
"rule met"
>>> categorylabel("O=C1OCC=C[C@H]2OC34C=CCN(Cn5nnc6ccccc65)C(=O)[C@H]3N(CCCCCO)C(=O)[C@@H]4[C@@H]12 (stereo not given in full)")
"rule not met"
>>> categorylabel("COc1ccc(C(O)C2C=CC3C(=O)N(C)C(=O)C3N2NC(=O)OC(C)(C)C)c2ccccc12 (stereo not given)")
"rule met"
>>> categorylabel("O=C1C2C=CC(C(O)c3c(F)cccc3Cl)N(Nc3ccccc3F)C2C(=O)N1c1ccccc1 (stereo not given)")
"rule met"
>>> categorylabel("COCCOC(=O)N1C(=O)[C@@]2(c3cc(C#CCCO)ccc31)[C@H](c1ccc(OCCO)cc1)N1[C@H](c3ccccc3)[C@H](c3ccccc3)OC(=O)[C@H]1[C@@H]2C(N)=O")
"rule met"
>>> categorylabel("CC(=O)Nc1cc(Br)ccc1C(=O)NCc1ccccc1")
"rule not met"
>>> categorylabel("CCCCCN1CC=CC23O[C@@H]4C=CCOC(=O)[C@@H]4[C@H]2C(=O)N(C(C)CO)[C@@H]3C1=O (stereo not given in full)")
"rule not met"
>>> categorylabel("C=CCN1Cc2ccccc2[C@@H]2OC(c3ccc(OCCCO)cc3)=N[C@]2(CCS(=O)(=O)c2ccccc2)C1=O")
"rule met"

Source listed as PubChem BioAssay.
